Origin of values: BigSolDB 2.1

details: in isopropanol, 313.15 K
measured_metric: solubility (mole fraction)
One number for each entry.

# solubility (mole fraction) of NC(=O)Cc1ccc(O)cc1 = 0.0122

----------
details: in ethyl acetate, 323.15 K
measured_metric: solubility (mole fraction)
Give bare numbers.

The reported solubility (mole fraction) of the compound NC(=O)Cc1ccc(O)cc1 was 0.00932

----------
details: in n-butanol, 293.15 K
measured_metric: solubility (mole fraction)

compound NC(=O)Cc1ccc(O)cc1 , solubility (mole fraction) observed: 0.00508

----------
details: in n-heptane, 288.15 K
measured_metric: solubility (mole fraction)
Numbers only.

Measured solubility (mole fraction), NC(=O)Cc1ccc(O)cc1 : 0.00111

----------
details: in acetonitrile, 308.15 K
measured_metric: solubility (mole fraction)
Give bare numbers.

Noted for NC(=O)Cc1ccc(O)cc1 : its solubility (mole fraction) reads 0.00463

----------
details: in methanol, 278.15 K
measured_metric: solubility (mole fraction)
Give bare numbers.

For this compound ( NC(=O)Cc1ccc(O)cc1 ), measured solubility (mole fraction) is 0.0075

----------
details: in n-heptane, 323.15 K
measured_metric: solubility (mole fraction)
Answers are plain numbers.

Looking up NC(=O)Cc1ccc(O)cc1 , I see its solubility (mole fraction) listed as 0.00627

----------
details: in methyl acetate, 288.15 K
measured_metric: solubility (mole fraction)
Answers are plain numbers.

GET /value?item= NC(=O)Cc1ccc(O)cc1 &field=solubility (mole fraction) returns 0.00415

----------
details: in isopropanol, 323.15 K
measured_metric: solubility (mole fraction)

Record NC(=O)Cc1ccc(O)cc1 . Reported solubility (mole fraction): 0.0164

----------
details: in n-heptane, 283.15 K
measured_metric: solubility (mole fraction)

compound NC(=O)Cc1ccc(O)cc1 , solubility (mole fraction) observed: 0.00087

----------
details: in ethanol, 283.15 K
measured_metric: solubility (mole fraction)
Give bare numbers.

Per the record, NC(=O)Cc1ccc(O)cc1 has solubility (mole fraction) of 0.00459

----------
details: in methanol, 283.15 K
measured_metric: solubility (mole fraction)
Numbers only.

Lab note: NC(=O)Cc1ccc(O)cc1 gave solubility (mole fraction) of 0.00824

----------
details: in ethyl acetate, 298.15 K
measured_metric: solubility (mole fraction)

Field solubility (mole fraction) (entry NC(=O)Cc1ccc(O)cc1 ) reads 0.00363

----------
details: in n-propanol, 303.15 K
measured_metric: solubility (mole fraction)
Answers are plain numbers.

solubility (mole fraction) for NC(=O)Cc1ccc(O)cc1 is 0.0052

----------
details: in water, 313.15 K
measured_metric: solubility (mole fraction)

Data point: NC(=O)Cc1ccc(O)cc1 ; solubility (mole fraction) = 0.00573

----------
details: in n-heptane, 308.15 K
measured_metric: solubility (mole fraction)
Answers are plain numbers.

What the record says about NC(=O)Cc1ccc(O)cc1 : solubility (mole fraction) is 0.00329

----------
details: in n-hexane, 298.15 K
measured_metric: solubility (mole fraction)
One number for each entry.

solubility (mole fraction) reported for this compound NC(=O)Cc1ccc(O)cc1 : 0.00151

----------
details: in n-hexane, 313.15 K
measured_metric: solubility (mole fraction)
Give bare numbers.

Measured solubility (mole fraction) of NC(=O)Cc1ccc(O)cc1 : 0.00343

----------
details: in ethyl acetate, 283.15 K
measured_metric: solubility (mole fraction)
Answers are plain numbers.

For this molecule ( NC(=O)Cc1ccc(O)cc1 ), measured solubility (mole fraction) is 0.00196
